Test system: HOP-92
Experiment: NCI tumour cell line growth inhibition, 48 h
Calls of active or inactive are those of the source. Cut-off read from the data, not from the text of the source: active = GI50 up to about 1.1 µM and inactive = higher.
Outcome codes: True = active, False = inactive

compound: CNn1c(-c2ccc(C)cc2)n[nH]c1=O
discrete_label: False

compound: COC1=C(C)C(=O)C2=C(C1=O)C1C3CC4=C(C(=O)C(OC)=C(C)C4=O)C(CNC(=O)C(C)O)N3C(C#N)C(C2)N1C (stereo not drawn)
discrete_label: True

compound: N#CCCN(CCC#N)c1ccc(/C=C2\SC(=S)NC2=O)cc1Br
discrete_label: False

compound: CCOC(=O)c1ccc(N(CCOS(=O)(=O)c2ccc(C)cc2)CCOS(=O)(=O)c2ccc(C)cc2)cc1
discrete_label: False

compound: C[C@]12CCC(=O)C(O)=C1CC[C@@H]1[C@@H]2CC[C@]2(C)C(=O)CC[C@@H]12
discrete_label: False

compound: Cc1cc(Cl)ccc1NC(=O)C(=O)Cc1ccc([N+](=O)[O-])c([N+](=O)[O-])c1CC(=O)C(=O)Nc1ccc(Cl)cc1C
discrete_label: False

compound: NC1=Nc2ccccc2Sc2cccc(F)c21
discrete_label: False

compound: Cc1cc(OC(=O)Nc2ccc(Cl)cc2)ccc1C(=S)Nc1ccccc1
discrete_label: False

* * *

Test system: DLD-1
Assay: NCI tumour cell line growth inhibition, 48 h
Calls of active or inactive are those of the source. Rule as the data show it: active = GI50 up to about 1.1 µM and inactive = higher.
Recorded GI50 by entry
measurement_type: GI50

compound: CC[n+]1c(/C=C/c2ccc(N(CCCl)CCCl)cc2)ccc2cc(Br)ccc21
reported: 2.71 µM (inactive)
//
compound: COC(=O)C1=CCC2c3[nH]c4ccccc4c3CCN2C1 (stereo not given)
reported: > 354 µM (inactive)
//
compound: Cc1nc(-n2nc(-c3ccccc3)cc2-c2ccccc2)sc1C(/C=C\c1ccc([N+](=O)[O-])cc1)=N/NC(=S)NN
reported: 19.2 µM (inactive)
//
compound: CCCCCCCCOCC(CO)OCCCCCCCC (stereo not given)
reported: 18 µM (inactive)
//
compound: COC(=O)OCC1OC(N2C(=O)NC(=O)C(I)C2N=[N+]=[N-])CC1OC(=O)OC (stereo not given)
reported: > 100 µM (inactive)

* * *

Recorded GI50 by entry
System: HCT-15
measurement_type: GI50

compound: COc1cc2c(oc(=O)c3c4oc([Si](C)(C)C)cc4cc(OC)c23)c2cccc(O)c12
reported: > 100 µM
--
compound: CCc1cccc(C(C)C)c1NC(=O)C(=O)C1C(=O)NC(=O)NC1=O
reported: > 100 µM
--
compound: CN/N=C(\C)C(CN(C)C)C(c1ccccc1)c1c(O)c2ccccc2oc1=O (stereo not drawn)
reported: > 100 µM

* * *

Tested on: UACC-62
Test: NCI tumour cell line growth inhibition, 48 h
Activity calls are given as the source filed them. No stated cut-off is given here; in the data, active = GI50 up to about 1.1 µM and inactive = higher.

compound: Cc1[nH]c2ccccc2c1C1=CC(=O)N(c2ccccc2)C1=O
GI50: 9.82 µM (inactive)

compound: Cc1ccc(-c2cc(-c3ccco3)c(C#N)c(=O)n2C2OC(CO)C(O)C(O)C2O)cc1 (configuration not stated)
GI50: 42.3 µM (inactive)

compound: O=C1C(Cl)N(c2cccc(Cl)c2)C1c1c[nH]c2ccccc12 (configuration not stated)
GI50: > 100 µM (inactive)

compound: CC(=O)O[C@]12CCCCCC1C1(O)C(O)CCCC[C@H]12 (some centres not stated)
GI50: > 100 µM (inactive)

compound: CC(C)(C)[Si](C)(C)OCC1OC(n2cnc3c(N)ncnc32)C(O[Si](C)(C)C(C)(C)C)C1O[Si](C)(C)C(C)(C)C (configuration not stated)
GI50: 7.41 µM (inactive)

compound: CC(C)/C=N\N1C(N)=C(C#N)C(C#N)(C#N)C1C(C)C (configuration not stated)
GI50: 26.4 µM (inactive)

compound: O=C1C2CC=CCC2C(=O)N1n1c(-c2ccccc2)n[nH]c1=O (configuration not stated)
GI50: > 100 µM (inactive)

* * *

Test system: A498
Assay: NCI tumour cell line growth inhibition, 48 h
Active and inactive are the calls of the source. Rule as the data show it: active = GI50 up to about 1.1 µM and inactive = higher.
Outcome codes: active, inactive

compound: CC(C)C[C@H](NC(=O)CCc1cccc2ccccc12)B(O)O
discrete_label: active
--
compound: CN(C)CCNc1ccc2c(=O)n(CCN(C)C)c(=O)n3c4ccc(O)cc4c(=O)c1c23
discrete_label: active
--
compound: O=C(CCc1nnc(S)[nH]1)Nc1ccc(Cl)c(Cl)c1
discrete_label: inactive
--
compound: O=C1C2c3[nH]c4ccccc4c3C3CCC(c4ccccc4)CC3C2C(=O)N1c1ccccc1 (centres undefined)
discrete_label: inactive
--
compound: COP(=O)(OC)/C(=C/c1cn(C(c2ccccc2)(c2ccccc2)c2ccccc2)cn1)NC=O
discrete_label: inactive
--
compound: Cc1ccc(NC(=O)CSc2nc(O)nc3[nH]cnc23)cc1
discrete_label: inactive
--
compound: O=C1NC(=O)[C@@H](OCC2CCCCC2)[C@@H]2OCC3OC(C(O)C3O)C12 (some centres undefined)
discrete_label: inactive
--
compound: CCOC(=O)C(=O)CC1=Nc2ccccc2SC(c2cccc(C)c2)C1 (centres undefined)
discrete_label: inactive
--
compound: OCC(CCc1ccccc1I)C1=CCC2(CC1)OCCO2 (centres undefined)
discrete_label: inactive
--
compound: COc1cc2c(/C=C3/C(=O)N(c4ccccc4)c4ccccc43)c(Cl)[nH]c2cc1C
discrete_label: inactive
--
compound: COc1cc(O)c2c(=O)cc(-c3ccc(O)cc3O)oc2c1CC=C(C)C [ARTOCARPETIN A]
discrete_label: inactive
--
compound: COC(=O)C1C(O)CCC2CN3CCc4c([nH]c5ccccc45)C3CC21 (centres undefined)
discrete_label: inactive
--
compound: COc1cc2c(oc(=O)c3c4oc([Si](C)(C)C)cc4cc(OC)c23)c2cccc(O)c12
discrete_label: inactive
--
compound: N#Cc1c(-c2ccc(Cl)cc2Cl)nc2[nH]nc(S)n2c1=O
discrete_label: inactive

* * *

Test system: Malme-3M
Assay: NCI tumour cell line growth inhibition, 48 h
Active and inactive are the calls of the source. No stated cut-off is given here; in the data, active = GI50 up to about 1.1 µM and inactive = higher.
Outcome codes: active, inactive

compound: O=NN1C(c2ccccc2)CCCC1c1ccccc1 (stereo unspecified)
discrete_label: inactive
//
compound: COc1ccc(OC)c([N+](=O)[O-])c1-c1nc2sc(C)cn2c1/C=N/N=C(N)N
discrete_label: inactive
//
compound: COc1cc2c(/C=C3/C(=O)Nc4ccc(O)cc43)c(Cl)n(Cc3ccccc3)c2cc1C
discrete_label: active
//
compound: CC1CC[P+](c2ccccc2)(c2ccccc2)CC1
discrete_label: inactive
//
compound: CN1NC(c2ccccc2)=C(C#N)C(=O)CC1c1ccc(Br)cc1 (stereo unspecified)
discrete_label: inactive
//
compound: CCCCCC(=O)CCCCCCCC(O)CC(=O)OCC (stereo unspecified)
discrete_label: inactive
//
compound: COc1ccc2[nH]cc(CCNC(=O)[C@H](Cc3ccc(O)cc3)NC(=O)[C@@H](NCC(F)(F)F)C(C)C)c2c1
discrete_label: inactive
//
compound: c1nc(N2CC2)c2cnn(C3CCCCO3)c2n1 (stereo unspecified)
discrete_label: inactive
//
compound: N#Cc1nc(CN2C(=O)c3ccccc3C2=O)oc1N
discrete_label: inactive
//
compound: COc1cc(O)c2c(=O)cc(-c3ccc(O)cc3O)oc2c1CC=C(C)C
discrete_label: inactive
//
compound: COc1cc2c3c(c1)c1cc(OC)c(OC)cc1c[n+]3CC2
discrete_label: active

* * *

Tested on: RXF 393
Assay: NCI tumour cell line growth inhibition, 48 h
The source made the active and inactive calls. Cut-off read from the data, not from the text of the source: active = GI50 up to about 1.1 µM and inactive = higher.

compound: O=C1CCc2ccc(O)c(c2)Oc2ccc(cc2)C(Sc2ccccc2)CCO1 (centres undefined)
GI50: 17.8 µM (inactive)

compound: O=C(/C=C/c1cccc2ccccc12)c1ccccc1Cl
GI50: 16.7 µM (inactive)

compound: COC(=O)C(=O)C(C(=O)C=C(C)C)C(=O)C(=O)Nc1ccc(C)cc1C (centres undefined)
GI50: > 100 µM (inactive)

compound: COc1cccc2c1C(=O)c1c(O)c3c(c(O)c1C2=O)C[C@H](O)C[C@@H]3OC1CC(N)C(O)C(C)O1 (some centres undefined)
GI50: 6.58 µM (inactive)

* * *

Test system: U-251
Assay: NCI tumour cell line growth inhibition, 48 h
Activity calls are given as the source filed them. No stated cut-off is given here; in the data, active = GI50 up to about 1.1 µM and inactive = higher. Where a SMILES comes first, the peptide text is derived from it. The star is where a group is joined. Boc = CC(C)(C)OC(=O)*; OBn = c1ccc(CO*)cc1
Outcome codes: active, inactive

compound: CC[C@]12CCCN3CCc4c(n(c5ccccc45)C(=O)C1)[C@@H]32
target_or_test_system: U-251
discrete_label: inactive
//
compound: N#CCCN(CCC#N)c1ccc(/C=C2\SC(=S)NC2=O)cc1Br
target_or_test_system: U-251
discrete_label: inactive
//
compound: CC1=C(C(=O)OC(C)(C)C)C(c2ccc([N+](=O)[O-])cc2)C(C(=O)OC(C)(C)C)=C(C)N1
target_or_test_system: U-251
discrete_label: inactive
//
compound: Cn1c(=O)c2[nH]cnc2n(CC(=O)O)c1=O
target_or_test_system: U-251
discrete_label: inactive
//
compound: C[C@]12CCC(=O)C(O)=C1CC[C@@H]1[C@@H]2CC[C@]2(C)C(=O)CC[C@@H]12
target_or_test_system: U-251
discrete_label: inactive
//
compound: CCc1n[nH]c(=O)n1CCCCCCCCCCCCn1c(CC)n[nH]c1=O
target_or_test_system: U-251
discrete_label: inactive
//
compound: Nc1cccnc1NCC1(CO)CCCC1
target_or_test_system: U-251
discrete_label: inactive
//
compound: CC1CC[P+](c2ccccc2)(c2ccccc2)CC1
target_or_test_system: U-251
discrete_label: inactive
//
compound: CCC(C)NC(=S)N/N=C(\C)c1ccccn1 (stereo not given)
target_or_test_system: U-251
discrete_label: active
//
compound: Cc1nc(-n2nc(-c3ccccc3)cc2-c2ccccc2)sc1C(/C=C\c1ccc([N+](=O)[O-])cc1)=N/NC(=S)NN
target_or_test_system: U-251
discrete_label: inactive
//
compound: C[C@@]12CCC3C1C=C1C(=O)c4cc(O)ccc4C(=O)[C@]1(O2)[C@@]3(C)C=O
target_or_test_system: U-251
discrete_label: inactive
//
compound: CCOC(=O)NNC(=O)C1CSC(c2ccccc2)N1C(C)=O (stereo not given)
target_or_test_system: U-251
discrete_label: inactive
//
compound: C=CC(=O)NCNC(=O)C=C
target_or_test_system: U-251
discrete_label: inactive
//
compound: CC(C)CC(NC(=O)C(Cc1ccccc1)NC(=O)C(Cc1ccccc1)NC(=O)OC(C)(C)C)C(=O)OCc1ccccc1 (stereo not drawn) (Boc-Phe-Phe-Leu-OBn; configuration not given here)
target_or_test_system: U-251
discrete_label: inactive
//
compound: COc1cc2c(cc1OC)C(C#N)N(C(=O)c1ccccc1)C=C2OC(=O)c1ccccc1 (stereo not given)
target_or_test_system: U-251
discrete_label: inactive
//
compound: OCC(CCc1ccccc1I)C1=CCC2(CC1)OCCO2 (stereo not given)
target_or_test_system: U-251
discrete_label: inactive
//
compound: N#CC1(C#N)C(=O)c2ccncc2C1=O
target_or_test_system: U-251
discrete_label: inactive
//
compound: C[C@]12CC[C@@H]3c4ccc(O)cc4CC[C@H]3[C@@H]1CC[C@@H]2OP(=O)(O)O
target_or_test_system: U-251
discrete_label: inactive
//
compound: COc1cc2c(cc1OC)C(=O)N(c1ccc(OCCN3CCCC3)cc1)C2
target_or_test_system: U-251
discrete_label: inactive
//
compound: OCCN=C1c2ccccc2C2C(c3ccccc31)C1c3ccccc3C(=NCCO)c3ccccc3C21 (stereo not given)
target_or_test_system: U-251
discrete_label: inactive
